- ASSAY TARGET: mutant MGL (Homo sapiens, UniProt Q99685, L169S/L176S)
- Sequence (Q99685 1-303 L169S/L176S): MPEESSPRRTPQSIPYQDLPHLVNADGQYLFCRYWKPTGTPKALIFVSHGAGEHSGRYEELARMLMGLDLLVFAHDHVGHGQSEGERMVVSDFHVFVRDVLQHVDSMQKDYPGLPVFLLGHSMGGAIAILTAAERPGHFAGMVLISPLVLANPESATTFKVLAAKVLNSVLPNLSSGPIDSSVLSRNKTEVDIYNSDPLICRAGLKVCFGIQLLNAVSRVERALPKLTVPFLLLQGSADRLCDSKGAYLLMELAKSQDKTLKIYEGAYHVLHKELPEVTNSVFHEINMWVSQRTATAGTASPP
- MEASUREMENT PROTOCOL: MGL ThermoFluor assay - mutant
- Assay type: binding
- TEST CONTEXT: ThermoFluor concentration-response, read-out: MGL mutant ThermoFluor Kd
RECORDED ENDPOINT: log10 of Kd (log10 of the value in µM)

> print(dat)
                               smiles.entry  recorded.endpoint  endpoint.value
1  O=C(c1ccc(Oc2ccc(Cl)c(Cl)c2)cc1)N1CC(N2CCN(C(=O)c3nccs3)CC2)C1        log10 of Kd           -2.16
2  CCCn1ccc2cc(C(=O)N3CC(N4CCN(C(=O)c5nccs5)CC4)C3)ccc21        log10 of Kd           -2.40
3  O=C(c1ccccc1)N1CCN(C2CN(C(=O)c3ccc(CNc4ccccc4F)cc3)C2)CC1        log10 of Kd           -0.43
4  O=C(c1ccccc1)c1ccc(C(=O)N2CC(N3CCN(C(=O)c4nccs4)CC3)C2)cc1        log10 of Kd           -1.31
5  COc1ccc(C(=O)N2CC(N3CCN(C(=O)c4nccs4)CC3)C2)cc1-c1ccccc1        log10 of Kd           -1.17
6  O=C(c1ccc(-c2nc(-c3ccccc3Cl)cs2)cc1)N1CC(N2CCN(C(=O)c3nccs3)CC2)C1        log10 of Kd           -2.70
7  O=C(c1ccc(Cc2ccc(C(F)(F)F)cc2)cc1)N1CC(N2CCN(C(=O)c3nccs3)CC2)C1        log10 of Kd           -2.30
8  O=C(c1ccccc1)N1CCN(C2CN(C(=O)c3ccc4c(-c5cccc(C(F)(F)F)c5)c[nH]c4c3)C2)CC1        log10 of Kd           -1.52

====

IC50 values for the compounds below.
- ASSAY TARGET: purified wild type MGL (wt-MGLL 6H-11-313) (Homo sapiens, UniProt Q99685)
- Sequence (Q99685 1-303): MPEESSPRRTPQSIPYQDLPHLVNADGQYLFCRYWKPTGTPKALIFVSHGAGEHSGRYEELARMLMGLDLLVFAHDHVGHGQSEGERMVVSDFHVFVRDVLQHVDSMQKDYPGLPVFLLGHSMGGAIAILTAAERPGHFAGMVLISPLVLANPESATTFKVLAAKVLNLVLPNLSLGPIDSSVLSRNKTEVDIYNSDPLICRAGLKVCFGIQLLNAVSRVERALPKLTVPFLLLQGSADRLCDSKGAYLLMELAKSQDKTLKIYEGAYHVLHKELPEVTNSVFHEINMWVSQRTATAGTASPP
RECORDED ENDPOINT: IC50 (µM)

> print(dat)
                               smiles.entry  recorded.endpoint  limit.sign  endpoint.value
1  O=C(CCCc1ccccc1)N1CC(N2CCN(C(=O)c3nccs3)CC2)C1               IC50           >            16.7
2  CCNC(=O)COc1ccc(C(=O)N2CC(N3CCN(C(=O)c4nccs4)CC3)C2)cc1               IC50           =            2.64
3  O=C(c1ccccc1)N1CCN(C2CN(C(=O)c3ccc4c(ccn4-c4ccc(Cl)cn4)c3)C2)CC1               IC50           =           0.053
4  Cn1cc(C(=O)N2CC(N3CCN(C(=O)c4nccs4)CC3)C2)c2ccccc21               IC50           =            5.11

====

- ASSAY TARGET: mutant MGL (Homo sapiens, UniProt Q99685, L169S/L176S)
- Sequence (Q99685 1-303 L169S/L176S): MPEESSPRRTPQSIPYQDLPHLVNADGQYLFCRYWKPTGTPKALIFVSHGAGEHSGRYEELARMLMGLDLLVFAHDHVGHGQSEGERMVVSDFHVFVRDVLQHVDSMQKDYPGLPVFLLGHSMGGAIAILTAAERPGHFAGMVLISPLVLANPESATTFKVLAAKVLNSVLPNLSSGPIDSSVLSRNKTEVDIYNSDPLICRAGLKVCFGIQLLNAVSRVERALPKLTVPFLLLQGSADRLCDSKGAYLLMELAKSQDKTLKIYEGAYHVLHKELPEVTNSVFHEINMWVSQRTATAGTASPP
- MEASUREMENT PROTOCOL: MGL ThermoFluor assay - mutant
- Format: binding
- TEST CONTEXT: ThermoFluor concentration-response, read-out: MGL mutant ThermoFluor Kd
pKd: −log10 of the molar value.
RECORDED ENDPOINT: pKd

> print(dat)
                                smiles.entry  limit.sign  endpoint.value
 1  O=C(c1ccc(-c2nc(-c3ccc(F)cc3)cs2)cc1)N1CC(N2CCN(C(=O)c3nccs3)CC2)C1           =            8.52
 2  O=C(c1ccc(-n2cnc3ccccc32)cc1)N1CCN(C2CN(C(=O)c3nccs3)C2)CC1           =            6.32
 3  O=C(c1cscn1)N1CCN(C2CN(C(=O)c3ccc(-c4ccccc4)cc3F)C2)CC1           =            7.20
 4  O=C(Nc1cccc(C(=O)N2CC(N3CCN(C(=O)c4ccccc4)CC3)C2)c1)C1CCCCC1           <            4.51
 5  Cc1c(-c2ccccc2)oc2c(C(=O)N3CC(N4CCN(C(=O)c5ccccc5)CC4)C3)cccc2c1=O           =            6.25
 6  O=C(c1ccc(COc2cccc(Cl)c2)cc1)N1CC(N2CCN(C(=O)c3nccs3)CC2)C1           =            7.92
 7  O=C(c1ccc2c(c1)[nH]c(=O)n2CC(F)(F)F)N1CC(N2CCN(C(=O)c3cscn3)CC2)C1           =            5.98
 8  Cc1c(C(=O)N2CC(N3CCN(C(=O)c4cscn4)CC3)C2)[nH]c2ccc(Cl)cc12           =            6.48
 9  Cc1ccc(Sc2ncccc2C(=O)N2CC(N3CCN(C(=O)c4cscn4)CC3)C2)cc1           =            5.18
10  O=C(c1ccc(SCc2cccnc2)cc1)N1CC(N2CCN(C(=O)c3nccs3)CC2)C1           =            6.80
11  O=C(c1nccs1)N1CCN(C2CN(C(=O)c3cc(-c4ccccc4)ccc3F)C2)CC1           =            6.00
12  NC(=O)c1cc(-n2ccc3cc(C(=O)N4CC(N5CCN(C(=O)c6nccs6)CC5)C4)ccc32)ccc1F           =            7.27
13  O=C(c1ccc(CNc2cccc(Cl)c2)cc1)N1CC(N2CCN(C(=O)c3nccs3)CC2)C1           =            8.07
14  O=C(c1ccc2c(ccn2-c2ncc(F)cn2)c1)N1CC(N2CCN(C(=O)c3nccs3)CC2)C1           =            8.52
15  O=C(c1ccc2nc(-c3cccc(C(F)(F)F)c3)oc2c1)N1CC(N2CCN(C(=O)c3nccs3)CC2)C1           =            8.10
16  Cc1nc(-c2cccc(Cl)c2)sc1C(=O)N1CC(N2CCN(C(=O)c3nccs3)CC2)C1           =            8.08

====

- ASSAY TARGET: MGL (Rattus norvegicus, UniProt Q8R431)
- Construct: one g rat brain was homogenized using a Polytron homogenizer; from tissue; host or cells: rat brain homogenate
- Sequence (Q8R431 whole entry): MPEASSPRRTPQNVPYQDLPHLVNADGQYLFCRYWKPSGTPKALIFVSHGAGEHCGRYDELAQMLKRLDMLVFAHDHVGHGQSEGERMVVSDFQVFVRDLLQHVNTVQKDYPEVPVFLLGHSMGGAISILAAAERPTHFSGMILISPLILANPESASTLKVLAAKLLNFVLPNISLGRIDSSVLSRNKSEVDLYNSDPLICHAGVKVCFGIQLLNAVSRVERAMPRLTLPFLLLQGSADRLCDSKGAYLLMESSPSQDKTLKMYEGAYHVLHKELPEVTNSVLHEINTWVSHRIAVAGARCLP
- MEASUREMENT PROTOCOL: 2-AG accumulation assay in rat brain homogenate
- Assay type: biochemical
- TEST CONTEXT: rat brain homogenate; compound 1 μM; 2-AG accumulation as percent of vehicle; read-out: Rat Brain 2AG % VehCntrl (%) @ 1 μM
2-AG accumulation, % of vehicle control at 1 µM values for the compounds below.
RECORDED ENDPOINT: 2-AG accumulation, % of vehicle control at 1 µM (%)

> print(dat)
                                smiles.entry  endpoint.value
 1  O=C(c1ccc(-c2ccc(C(F)(F)F)s2)cc1)N1CCN(C2CN(C(=O)c3cscn3)C2)CC1             325
 2  O=C(c1ccccc1)N1CCN(C2CN(C(=O)c3ccc4c(-c5ccc(C(F)(F)F)cc5)c[nH]c4c3)C2)CC1             301
 3  O=C(c1cscn1)N1CCN(C2CN(C(=O)c3sc4cc(C(F)(F)F)ccc4c3F)C2)CC1             861
 4  O=C(c1ccc[nH]1)N1CCN(C2CN(C(=O)c3nn(-c4ccc(Cl)cc4Cl)c4c3CCC/C4=C\c3ccc(Cl)cc3)C2)CC1             287
 5  O=C(c1ccc2c(c1)CCN(S(=O)(=O)c1ccccc1)C2)N1CC(N2CCN(C(=O)c3nccs3)CC2)C1             850
 6  O=C(c1ccccc1)c1ccc(C(=O)N2CC(N3CCN(C(=O)c4nccs4)CC3)C2)cc1             307
 7  O=C(c1nccs1)N1CCN(C2CN(C(=O)c3cccc4c3ccn4-c3ccc(F)cc3)C2)CC1             823
 8  O=C(c1cscn1)N1CCN(C2CN(C(=O)c3sc4cc(F)ccc4c3Cl)C2)CC1             301
 9  O=C(c1ccc2c(c1)CCCN2)N1CC(N2CCN(C(=O)c3nccs3)CC2)C1             152
10  CCCn1ccc2cc(C(=O)N3CC(N4CCN(C(=O)c5nccs5)CC4)C3)ccc21             698
11  COc1ccc(-n2ccc3cc(C(=O)N4CC(N5CCN(C(=O)c6ccc[nH]6)CC5)C4)ccc32)cn1             378
12  O=C(c1ccc(-c2ccccc2)cc1)N1CC(N2CCN(C(=O)c3ccc(Cl)o3)CC2)C1             198
13  O=C(c1ccccc1)N1CCN(C2CN(C(=O)c3sc4cc(F)ccc4c3Cl)C2)CC1             158
14  COc1cc(C(=O)N2CC(N3CCN(C(=O)c4cscn4)CC3)C2)ccc1-c1ccccc1             190
15  O=C(c1cccc(-c2ccc(F)cc2F)c1)N1CC(N2CCN(C(=O)c3nccs3)CC2)C1             437
16  Cc1ccc(-n2ccc3cc(C(=O)N4CC(N5CCN(C(=O)C(F)(F)F)CC5)C4)ccc32)nc1             401
